tested.target: Urokinase (Homo sapiens, UniProt P00749)
pKi: −log10 of the molar value.
endpoint.name: pKi

Measured pKi (Urokinase (Homo sapiens, UniProt P00749)), entry CCc1cc(C(Nc2ccc(C(=N)N)cc2)C(=O)NS(N)(=O)=O)cc2c(C)coc12 (stereo not shown) : < 5.17

---

assay.remarks: Solubility in water
Format: physicochemical
stated.conditions: aqueous buffer, thermodynamic from solid, amorphous solid, pH 2
endpoint.name: solubility (µM)
Give bare numbers, in µM.

Entry under test: CCc1cc(C(Nc2ccc(/C(N)=N\OCc3ccc(OC)cc3)cc2)C(=O)NS(N)(=O)=O)cc2c(C)coc12 (stereo not shown) . Its solubility was 115

---

tested.target: UniProt P00750
Sequence (P00750 36-562, species assumed): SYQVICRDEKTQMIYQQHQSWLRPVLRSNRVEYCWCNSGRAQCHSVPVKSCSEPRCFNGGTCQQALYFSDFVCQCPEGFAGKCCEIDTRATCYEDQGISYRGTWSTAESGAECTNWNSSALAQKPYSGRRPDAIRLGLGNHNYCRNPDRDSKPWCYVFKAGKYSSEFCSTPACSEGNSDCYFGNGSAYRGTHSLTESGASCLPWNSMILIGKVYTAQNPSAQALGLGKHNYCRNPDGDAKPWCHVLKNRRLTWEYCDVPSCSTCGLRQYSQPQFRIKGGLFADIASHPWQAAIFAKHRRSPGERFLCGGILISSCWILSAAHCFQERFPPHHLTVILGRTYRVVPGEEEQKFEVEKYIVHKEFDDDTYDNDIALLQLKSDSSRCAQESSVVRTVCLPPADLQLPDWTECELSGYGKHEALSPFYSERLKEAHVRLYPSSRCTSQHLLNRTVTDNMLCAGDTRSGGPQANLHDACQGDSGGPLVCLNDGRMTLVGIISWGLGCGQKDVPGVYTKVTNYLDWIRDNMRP
assay.remarks: tPA inhibition (Ki)
Type: biochemical
stated.conditions: tPA
endpoint.name: Ki

So the reported Ki for CCc1cc(C(Nc2ccc(C(=N)N)cc2)C(=O)NS(N)(=O)=O)cc2c(C)coc12 (stereo not shown) [Compound 8] , on UniProt P00750, turned out to be > 7.8 µM

---

tested.target: XIIA (Homo sapiens, UniProt P00748)
Sequence (P00748 373-615 limits assumed): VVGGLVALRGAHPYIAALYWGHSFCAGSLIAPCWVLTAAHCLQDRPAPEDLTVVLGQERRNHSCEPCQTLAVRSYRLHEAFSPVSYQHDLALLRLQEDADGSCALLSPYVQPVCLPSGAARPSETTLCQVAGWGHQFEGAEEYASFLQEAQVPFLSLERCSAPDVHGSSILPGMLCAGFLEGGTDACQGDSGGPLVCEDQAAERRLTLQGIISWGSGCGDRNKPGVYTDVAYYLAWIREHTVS
endpoint.name: Ki

# CCc1cc(C(Nc2ccc(C(=N)N)cc2)C(=O)NS(N)(=O)=O)cc2c(C)coc12 (stereo not shown) with XIIA (Homo sapiens, UniProt P00748): Ki is > 8.7 µM

---

assay.remarks: Plasma concentrations following IV bolus administration in rhesus monkey
Format: in vivo
stated.conditions: plasma, IV bolus 1 mg/kg
endpoint.name: half-life (h)
Give bare numbers, in h.

The compound CCOc1cc(OCC)cc(C(Nc2ccc(C(=N)N)cc2)C(=O)NS(=O)(=O)CC)c1 (stereo not shown) showed half-life equal to 1.25

---

tested.target: UniProt:P03951
Sequence (P03951 388-625 limits assumed): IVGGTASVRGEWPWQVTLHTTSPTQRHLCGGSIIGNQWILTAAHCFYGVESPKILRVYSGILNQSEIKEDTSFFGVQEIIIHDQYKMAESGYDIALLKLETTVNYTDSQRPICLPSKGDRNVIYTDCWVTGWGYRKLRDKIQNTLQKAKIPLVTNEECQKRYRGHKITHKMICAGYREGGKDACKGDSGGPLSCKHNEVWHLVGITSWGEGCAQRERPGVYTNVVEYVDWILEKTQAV
endpoint.name: Ki

Form field Ki, entry CCc1cc(C(Nc2ccc(C(=N)N)cc2)C(=O)NS(N)(=O)=O)cc2c(C)coc12 (stereo not shown) [Compound 8] : > 8 µM

---

tested.target: UniProt:P04070
Sequence (P04070 212-461 limits assumed): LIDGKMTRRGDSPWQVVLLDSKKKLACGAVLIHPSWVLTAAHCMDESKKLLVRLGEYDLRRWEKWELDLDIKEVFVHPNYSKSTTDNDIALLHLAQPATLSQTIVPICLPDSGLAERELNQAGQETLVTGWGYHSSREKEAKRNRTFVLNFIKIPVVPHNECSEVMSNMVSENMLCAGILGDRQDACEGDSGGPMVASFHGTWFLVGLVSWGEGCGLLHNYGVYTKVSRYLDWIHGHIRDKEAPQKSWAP
endpoint.name: Ki (nM)
Answers are plain numbers, in nM.

The compound listed as CCc1cc(C(Nc2ccc(C(=N)N)cc2)C(=O)NS(N)(=O)=O)cc2c(C)coc12 (stereo not shown) has a reported Ki of 1440

---

tested.target: Complement CS1 (Homo sapiens, UniProt P09871)
Sequence (P09871 16-688): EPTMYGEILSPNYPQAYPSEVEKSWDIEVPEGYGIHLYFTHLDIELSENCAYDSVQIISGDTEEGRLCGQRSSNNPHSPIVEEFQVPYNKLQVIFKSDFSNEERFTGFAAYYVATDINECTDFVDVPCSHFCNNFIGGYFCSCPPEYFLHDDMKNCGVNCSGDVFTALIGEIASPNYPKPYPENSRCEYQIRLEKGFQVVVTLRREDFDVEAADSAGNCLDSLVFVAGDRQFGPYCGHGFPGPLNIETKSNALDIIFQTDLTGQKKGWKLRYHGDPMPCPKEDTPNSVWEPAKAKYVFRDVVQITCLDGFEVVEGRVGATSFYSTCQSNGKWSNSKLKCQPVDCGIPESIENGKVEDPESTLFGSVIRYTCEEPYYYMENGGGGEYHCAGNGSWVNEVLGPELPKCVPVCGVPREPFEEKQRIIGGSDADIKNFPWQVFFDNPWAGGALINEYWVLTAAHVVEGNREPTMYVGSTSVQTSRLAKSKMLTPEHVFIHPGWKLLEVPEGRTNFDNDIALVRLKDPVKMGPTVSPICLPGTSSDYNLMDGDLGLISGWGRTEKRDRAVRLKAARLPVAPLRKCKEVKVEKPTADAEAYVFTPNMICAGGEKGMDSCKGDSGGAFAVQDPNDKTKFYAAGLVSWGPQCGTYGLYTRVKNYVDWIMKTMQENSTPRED
endpoint.name: Ki

Data point: CCc1cc(C(Nc2ccc(C(=N)N)cc2)C(=O)NS(N)(=O)=O)cc2c(C)coc12 (stereo not shown) [Compound 8] ; Ki = > 6.5 µM

---

tested.target: Plasma Kallikrein (Homo sapiens)
Construct: human Factor Xa, Thrombin, or Plasma Kallikrein (Hematologic Technologies)
Sequence (P03952 20-390 limits assumed): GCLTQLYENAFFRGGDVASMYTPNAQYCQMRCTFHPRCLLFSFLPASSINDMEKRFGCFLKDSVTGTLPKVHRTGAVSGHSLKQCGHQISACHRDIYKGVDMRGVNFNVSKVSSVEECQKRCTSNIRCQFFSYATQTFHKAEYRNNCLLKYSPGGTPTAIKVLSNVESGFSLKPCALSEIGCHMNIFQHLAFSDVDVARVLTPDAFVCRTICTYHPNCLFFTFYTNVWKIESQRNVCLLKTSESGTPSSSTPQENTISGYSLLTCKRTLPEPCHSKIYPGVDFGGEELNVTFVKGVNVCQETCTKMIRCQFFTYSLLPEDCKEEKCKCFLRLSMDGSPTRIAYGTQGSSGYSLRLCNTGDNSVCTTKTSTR
Sequence (P03952 391-638 limits assumed): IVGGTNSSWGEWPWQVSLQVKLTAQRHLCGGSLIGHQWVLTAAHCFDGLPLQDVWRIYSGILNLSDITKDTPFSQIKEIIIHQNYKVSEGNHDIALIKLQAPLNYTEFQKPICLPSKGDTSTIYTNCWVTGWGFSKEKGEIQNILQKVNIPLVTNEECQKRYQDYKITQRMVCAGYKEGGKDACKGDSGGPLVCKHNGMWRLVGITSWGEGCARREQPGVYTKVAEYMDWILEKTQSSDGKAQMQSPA
assay.remarks: Plasma Kallikrein assay (Ki)
stated.conditions: Plasma Kallikrein
endpoint.name: pKi
Give bare numbers, as −log10 of the molar value.

Lab note: measured pKi of CCc1cc(C(Nc2ccc(C(=N)N)cc2)C(=O)NS(N)(=O)=O)cc2c(C)coc12 (stereo not shown) was 7.09

---

tested.target: Chymotrypsin
assay.remarks: Chymotrypsin inhibition (Ki)
stated.conditions: Chymotrypsin
pKi: −log10 of the molar value.
endpoint.name: pKi

Reported pKi ( CCc1cc(C(Nc2ccc(C(=N)N)cc2)C(=O)NS(N)(=O)=O)cc2c(C)coc12 (stereo not shown) ) = < 5.16

---

tested.target: Plasmin (Homo sapiens, UniProt P00747)
Sequence (P00747 581-810 limits assumed, species assumed): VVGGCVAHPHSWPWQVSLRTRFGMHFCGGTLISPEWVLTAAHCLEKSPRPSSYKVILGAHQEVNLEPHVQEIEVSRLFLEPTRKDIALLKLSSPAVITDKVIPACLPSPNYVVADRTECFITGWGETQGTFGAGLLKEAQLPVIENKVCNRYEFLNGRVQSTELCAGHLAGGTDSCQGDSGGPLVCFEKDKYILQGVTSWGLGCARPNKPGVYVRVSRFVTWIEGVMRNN
Sequence (P00747 97-580 limits assumed, species assumed): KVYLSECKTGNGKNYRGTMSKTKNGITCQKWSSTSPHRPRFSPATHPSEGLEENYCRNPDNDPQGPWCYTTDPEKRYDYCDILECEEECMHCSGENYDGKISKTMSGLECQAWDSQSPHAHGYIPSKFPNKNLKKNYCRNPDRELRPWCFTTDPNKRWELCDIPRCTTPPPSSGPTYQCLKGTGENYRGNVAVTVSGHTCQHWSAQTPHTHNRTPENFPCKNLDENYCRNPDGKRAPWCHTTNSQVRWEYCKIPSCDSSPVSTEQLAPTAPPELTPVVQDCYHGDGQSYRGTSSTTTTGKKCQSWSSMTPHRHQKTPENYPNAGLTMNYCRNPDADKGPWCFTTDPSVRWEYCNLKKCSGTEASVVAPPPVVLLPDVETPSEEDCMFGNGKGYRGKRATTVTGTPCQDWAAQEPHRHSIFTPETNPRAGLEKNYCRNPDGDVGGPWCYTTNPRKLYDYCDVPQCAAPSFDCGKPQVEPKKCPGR
endpoint.name: Ki

Data point: CCc1cc(C(Nc2ccc(C(=N)N)cc2)C(=O)NS(N)(=O)=O)cc2c(C)coc12 (stereo not shown) [Compound 8] ; Ki = 880 nM

---

tested.target: Acetylcholinesterase (Homo sapiens)
Sequence (P22303 32-614, species assumed): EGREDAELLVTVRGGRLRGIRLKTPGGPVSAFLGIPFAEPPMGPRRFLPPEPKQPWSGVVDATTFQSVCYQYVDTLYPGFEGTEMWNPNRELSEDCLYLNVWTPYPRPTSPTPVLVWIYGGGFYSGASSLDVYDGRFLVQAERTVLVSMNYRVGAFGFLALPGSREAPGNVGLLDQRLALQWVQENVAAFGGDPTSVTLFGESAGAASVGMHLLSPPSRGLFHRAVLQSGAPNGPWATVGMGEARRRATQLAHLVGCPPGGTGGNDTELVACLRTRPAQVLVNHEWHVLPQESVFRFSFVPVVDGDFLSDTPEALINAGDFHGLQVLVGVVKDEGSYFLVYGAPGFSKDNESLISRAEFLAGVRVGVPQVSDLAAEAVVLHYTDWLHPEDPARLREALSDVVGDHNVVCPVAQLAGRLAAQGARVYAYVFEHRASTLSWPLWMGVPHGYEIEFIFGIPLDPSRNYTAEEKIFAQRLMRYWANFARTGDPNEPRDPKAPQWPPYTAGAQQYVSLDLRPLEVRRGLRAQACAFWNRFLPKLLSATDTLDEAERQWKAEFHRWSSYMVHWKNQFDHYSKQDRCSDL
pKi: −log10 of the molar value.
endpoint.name: pKi

// recorded pKi for CCc1cc(C(Nc2ccc(C(=N)N)cc2)C(=O)NS(N)(=O)=O)cc2c(C)coc12 (stereo not shown) [Compound 8] : < 5.17

---

assay.remarks: Solubility in water
Assay type: physicochemical
stated.conditions: aqueous buffer, thermodynamic from solid, amorphous solid, pH 6.5
endpoint.name: solubility (µM)
Give bare numbers, in µM.

# solubility (compound: CCc1cc(C(Nc2ccc(/C(N)=N\OCc3ccc(OC)cc3)cc2)C(=O)NS(N)(=O)=O)cc2c(C)coc12 (stereo not shown) ) is 98
